Kindly find below Ki information for UniProtKB P08581 taken from the literature.

# count of solved cases: 5
query: May I ask what Ki has been recorded for Nc1nn2cc(-c3ccncn3)cnc2c1C(=O)N1CCC[C@H]1CO ?
result: 500 to 5000 nM

query: Which measured Ki value corresponds to Nc1nn2cc(-c3ccc(C(=O)N4CCC[C@@H]4CO)cn3)cnc2c1-c1ccccn1 ?
result: < 500 nM

query: Request the reported Ki associated with Fc1cccc(-c2cnoc2-c2c[nH]c3ncc(-c4ncccn4)cc23)c1F
result: < 200 nM

query: Record request: Ki value, item NCc1cccc(-c2cnc(N)c(-c3nnnn3-c3cccc(Cl)c3Cl)c2)c1
result: ≤ 100 nM

query: Could you share which Ki value was measured for Nc1ncc(-c2ccc(NC(=O)c3cccs3)cc2)cc1-c1nnnn1-c1cccc(F)c1F ?
result: 100 to 1000 nM

More entries:
query: Could you tell me which Ki is on file for CC1CCCN1Cc1ccc(-c2cnc(N)c(-c3nnnn3-c3cccc(F)c3F)c2)cc1 (centres unmarked) ?
result: ≤ 100 nM

query: Please look up its Ki: CC(=O)Nc1cccc(-c2cnc(N)c(-c3nnnn3-c3cc(F)ccc3F)c2)c1
result: 100 to 1000 nM

query: Entry under review: Nc1ncc(-c2cc3c(s2)CCNCC3)cc1-c1nnnn1-c1cccc(Cl)c1Cl . Reported Ki?
result: ≤ 100 nM

query: Return reported Ki; argument: NC(=O)c1ccc(-c2cnc(N)c(-c3nnnn3-c3cccc(F)c3F)c2)cc1
result: ≤ 100 nM

query: # get_value(readout='Ki', item= Nc1nn2cc(-c3ccc(C(=O)N4CCC4)cn3)cnc2c1-c1ccccn1 )
result: < 500 nM

query: Given Fc1cnc2[nH]cc(-c3oncc3-c3cccc(F)c3F)c2c1 , state its recorded Ki.
result: 200 to 1000 nM

query: Consider the molecule shown here: C[C@H](c1ccc2ncccc2c1)c1nnc2sc(-c3cn(C)nc3C(F)(F)F)nn12 What is its recorded Ki?
result: 7 nM

query: Recorded Ki for Fc1cc(F)c(F)c(-c2cnoc2-c2c[nH]c3ncccc23)c1 , please?
result: 200 to 1000 nM

query: Recorded Ki for CC(=O)N1CCN(c2ncccc2-c2cnc3c(-c4ccccn4)c(N)nn3c2)CC1 , please?
result: 500 to 5000 nM

query: Looking for the measured Ki of Nc1ncc(-c2cnn(C3CCNCC3)c2)cc1-c1nc2cccnc2n1-c1cccc(Cl)c1F , can you help?
result: 100 to 1000 nM
